assay: Half life in carboxylesterase 1 knockout C57BL/6 mouse brain at 15.12 mg/kg, po administered as single dose measured upto 8 hrs by LC-MS/MS analysis; assay type: ADME, organism-based
Endpoint Name: half-life (h)

In [3]: df
Out[3]:
                                  structure  result_value
0  COc1cc(-c2nc(-c3ccccc3)c(-c3cccs3)[nH]2)cc(OC)c1OC(=O)N1CCC(N2CCCCC2)CC1             3

* * *

assay: Half life in carboxylesterase 1 knockout C57BL/6 mouse brain at 10 mg/kg, po administered as single dose measured upto 8 hrs by LC-MS/MS analysis; type: ADME, organism-based
Endpoint Name: half-life (min)

>>> print(df.to_string())
                                  structure  endpoint_name  result_value
0  COc1cc(-c2nc(-c3cccs3)c(-c3ccccc3)[nH]2)cc(OC)c1O      half-life          37.8

* * *

assay: Half life in carboxylesterase 1 knockout C57BL/6 mouse plasma at 15.12 mg/kg, po administered as single dose measured upto 8 hrs by LC-MS/MS analysis; format: ADME, organism-based
Endpoint Name: half-life (h)

In [3]: df
Out[3]:
                                  structure  endpoint_name  result_value
0  COc1cc(-c2nc(-c3ccccc3)c(-c3cccs3)[nH]2)cc(OC)c1OC(=O)N1CCC(N2CCCCC2)CC1      half-life           1.4

* * *

This listing pairs molecules with measured Stability.
assay: Metabolic stability of the compound in carboxylesterase 1 knockout mouse brain assessed as parent compound remaining at 10 uM measured after 1 hr in by UPLC analysis; type: ADME, tissue-based
Endpoint Name: Stability (%)

                                   molecule  result_unit  result_value
0  COc1cc(-c2nc(-c3ccccc3)c(-c3cccs3)[nH]2)cc(OC)c1OC(=O)N(C)C            %           100
1  COc1cc(-c2nc(-c3ccccc3)c(-c3cccs3)[nH]2)cc(OC)c1OCOP(=O)(O)OCOC(=O)OC(C)C            %            79
2  COc1cc(-c2nc(-c3ccccc3)c(-c3cccs3)[nH]2)cc(OC)c1OC(=O)N1C2CCCC1CC2            %            76
3  CCC1CC(N2CCCCC2)CC(CC)N1C(=O)Oc1c(OC)cc(-c2nc(-c3ccccc3)c(-c3cccs3)[nH]2)cc1OC (centres undefined)            %           100

* * *

assay: Stability in carboxylesterase 1 knockout C57BL/6 mouse brain assessed as intact compound level at 15.12 mg/kg, po administered as single dose measured upto 8 hrs by LC-MS/MS analysis; type: ADME, organism-based; conditions: read-out: Stability
Endpoint Name: concentration at 8 h

>>> df
                                  structure  result_value
0  COc1cc(-c2nc(-c3ccccc3)c(-c3cccs3)[nH]2)cc(OC)c1OC(=O)N1CCC(N2CCCCC2)CC1       86.5 nM

* * *

assay: Half life in carboxylesterase 1 knockout C57BL/6 mouse brain at 16.62 mg/kg, po administered as single dose measured upto 8 hrs by LC-MS/MS analysis; assay type: ADME, organism-based
Endpoint Name: half-life (min)

>>> print(df.to_string())
                                   molecule  result_unit  result_value
0  CCC1CC(N2CCCCC2)CC(CC)N1C(=O)Oc1c(OC)cc(-c2nc(-c3ccccc3)c(-c3cccs3)[nH]2)cc1OC (stereo unspecified)          min           108

Cited source for all entries: ChEMBL document CHEMBL5137084
